target entity: Human LRP-8 (isoform 3) expressed on cells (human, UniProt Q14114 33-963)
Sequence (Q14114 other isoform, or with tags, fused parts or gaps limits assumed): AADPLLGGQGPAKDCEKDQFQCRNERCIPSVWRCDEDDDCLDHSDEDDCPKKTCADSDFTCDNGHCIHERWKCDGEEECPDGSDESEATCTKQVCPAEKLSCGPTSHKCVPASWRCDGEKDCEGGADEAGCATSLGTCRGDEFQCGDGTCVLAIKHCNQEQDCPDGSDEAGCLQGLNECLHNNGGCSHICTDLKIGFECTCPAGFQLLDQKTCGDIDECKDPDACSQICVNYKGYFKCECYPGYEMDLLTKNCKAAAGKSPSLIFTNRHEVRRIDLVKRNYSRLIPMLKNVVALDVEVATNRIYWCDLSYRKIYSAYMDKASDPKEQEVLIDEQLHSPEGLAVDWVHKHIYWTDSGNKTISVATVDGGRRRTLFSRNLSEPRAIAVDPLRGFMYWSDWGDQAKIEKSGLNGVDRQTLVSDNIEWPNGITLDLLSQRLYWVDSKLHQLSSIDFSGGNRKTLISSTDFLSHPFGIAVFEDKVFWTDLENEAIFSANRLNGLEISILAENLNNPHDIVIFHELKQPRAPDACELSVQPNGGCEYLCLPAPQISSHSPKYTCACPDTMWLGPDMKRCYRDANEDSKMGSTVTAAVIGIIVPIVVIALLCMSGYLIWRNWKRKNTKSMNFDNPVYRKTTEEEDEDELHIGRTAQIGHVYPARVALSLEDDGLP
protocol text: cell-based or functional assay
Below: a set of entries, each annotated with reported Transcytosis, fold over IgG control.
attribute measured: Transcytosis, fold over IgG control (fold)

>>> result_number("anti-LRP-8 ML201-8F3.3D7 murine antibody (muFc) (antibody, V domains shown, Mouse Fc form; also called ML201-8F3-3D7 muFc; CL-33866) VH: EVQLVESGGDLVKPGGSLKLSCAASRFTFSNFGMSWVRQTPDKRLEWVATISSGGRYTYYPDSVKGRFTISRDNAKNTLYLQMSSLRSEDTAMYYCARDYLYAMDYWGQGTSVTVSS VL: DVVMTQTPLSLPVSLGDQASISCRSSQSLVYSNGNTYLHWYLQKPGQSPKVLMYKVSNRFSGVSDRFSGSGSGTDFTLKISRVEAEDLGVYFCSQSTHVPLTFGAGTKLELK")
1.08
>>> result_number("anti-LRP-8 antibody ab58216 (mFc) (antibody, V domains shown, Mouse Fc form) VH: EVHLQQSGPEVVKPGASVKISCKASGYIISGYFLNWVKQSHGKSLEWVGRINPYSGDTFFNQKFKGKATLTVDKSSNTAHMELRSLTSEDSAVFYCAREDIGRFAYWGQGTLVTVSA VL: DVLMTQTPLSLPVSLGDQASISCRSSQTIVHSNGNTYLEWYLQKPGQSPKLLIYKVSNRFSGVPDRFSGSGSGTDFTLKISRVEAEDLGVYYCFQGSHAPPTFGGGTKLEIK")
1.53
>>> result_number("anti-LRP-8 ML201-2B4.2B1.2H10 murine antibody (muFc) (antibody, V domains shown, Mouse Fc form; also called ML201-2B4.2B1.2H10 muFc; CL-33867) VH: DVKLVASGGGLVKPGGSLKLSCAASGFTLSRYAMSWVRQTPEKRLEWVAYIRNGGDYIYYADTVKGRFTISRDNARNTLYLQMSSLKSEDTAMYYCTREGSYYNFDYWGQGTTLTVSS VL: DVLMTQTPLSLPVSLGDQASISCRSSQSIVHSNGNTYLEWYLQKPGQSPNLLIFKVSNRFSGVPDRFIGSGSGTDFTLKISRVEAEDLGVYYCFQGSHVPWTFGGGTKLEIK")
1.44
